- SUBJECT OF TEST: Human IBAT (Homo sapiens)
- Construct: cells kept under Puromycin selection
- Sequence (Q12908 whole entry): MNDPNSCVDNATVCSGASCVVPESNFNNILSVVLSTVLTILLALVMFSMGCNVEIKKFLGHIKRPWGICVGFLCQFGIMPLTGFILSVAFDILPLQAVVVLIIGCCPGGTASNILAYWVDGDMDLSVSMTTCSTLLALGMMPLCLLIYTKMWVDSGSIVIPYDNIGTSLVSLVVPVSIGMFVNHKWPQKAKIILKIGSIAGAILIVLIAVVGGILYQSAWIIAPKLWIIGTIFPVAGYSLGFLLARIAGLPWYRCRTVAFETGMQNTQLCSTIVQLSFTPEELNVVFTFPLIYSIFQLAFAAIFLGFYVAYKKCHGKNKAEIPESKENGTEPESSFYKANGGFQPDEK
- ASSAY DETAILS: IBAT (h) assay: 3H-taurocholic acid uptake in human IBAT-overexpressing cells
- RECORDED CONDITIONS: 0.25 μM 3H-taurocholic acid and 5 μM cold taurocholic acid, 20 minutes, read-out: hIBAT IC50
OUTCOME MEASURE: pIC50
Numbers only, as −log10 of the molar value.

As a guide, the following entries are already answered.
CCCCC1(CCCC)CN(c2ccc(O)cc2)c2cc(SC)c(OCC(=O)O)cc2S(=O)(=O)C1 [Example 4] | 7.82
CCCCC1(CCCC)CN(c2ccc(C#N)cc2)c2cc(SC)c(OCC(=O)O)cc2S(=O)(=O)C1 [Example 5] | 7.24
CCCCC1(CC)CN(c2ccc(OC)cc2)c2cc(SC)c(OCC(=O)O)cc2S(=O)(=O)C1 (stereo not drawn) [Example 18] | 7.77
CCCCC1(CC)CN(c2ccc(F)cc2)c2cc(SC)c(OCC(=O)O)cc2S(=O)(=O)C1 (single isomer, unassigned) [Example 16] | 7.19
CCCCC1(CC)CN(c2ccc(O)cc2)c2cc(SC)c(OCC(=O)O)cc2S(=O)(=O)C1 (single isomer, unassigned) [Example 19] | 6.15
CCCCC1(CC)CN(c2ccc(F)cc2)c2cc(SC)c(OCC(=O)O)cc2S(=O)(=O)C1 (single isomer, unassigned) [Example 15] | 8.62
CCCCC1(CC)CN(c2ccc(F)cc2)c2cc(SC)c(OCC(=O)O)cc2S(=O)(=O)C1 (racemic) [Example 14] | 8.19
CCCCC1(CC)CN(c2ccccc2)c2cc(N(C)C)c(OCC(=O)O)cc2S(=O)(=O)C1 (racemic) [Example 7] | 7.85

Please go through the list and note pIC50 for each compound.
1. CCCCC1(CCCC)CN(c2ccccc2)c2cc(Cl)c(OCC(=O)O)cc2S(=O)(=O)C1 [Example 13]
2. CCCCC1(CCCC)CN(c2ccccc2)c2cc(N(C)C)c(OCC(=O)O)cc2S(=O)(=O)C1 [Example 1]
3. CCCCC1(CCCC)CN(c2ccccc2)c2cc(C#N)c(OCC(=O)O)cc2S(=O)(=O)C1 [Example 11]
4. CCCCC1(CC)CN(c2ccccc2)c2cc(F)c(OCC(=O)O)cc2S(=O)(=O)C1 (stereo not drawn) [Example 12]
5. CCCCC1(CCCC)CN(c2ccc(OC)cc2)c2cc(SC)c(OCC(=O)O)cc2S(=O)(=O)C1 [Example 2]
6. CCCCC1(CC)CN(c2ccccc2)c2cc(N(C)C)c(OCC(=O)O)cc2S(=O)(=O)C1 (single isomer, unassigned) [Example 9]

Found:
6.57
7.62
6.55
6.46
7.42
6.66

Lookup: I have this compound here, CCCCC1(CC)CN(c2ccc(O)cc2)c2cc(SC)c(OCC(=O)O)cc2S(=O)(=O)C1 (racemic) [Example 17] , and I need its recorded pIC50.
Found: 7.72
